test system: F380Y/beta1; experiment: modulators of BK channel variants, profiling panel, selectivity assay, cell-based, U2OS BacMam, thallium flux, beta subunits (AID 1259406); conditions: at 30 µM;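 further: initial slope of Thallos dye fluorescence rise after thallium is added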
Binary label based on log fold change Tl+ flux with cut-off 0.03: below gives YES, not below gives NO.

COMPOUND: Cc1cc2c(NC(=O)c3ccccc3C(=O)O)cccc2nn1
TESTED_ON: F380Y/beta1
CLASS_NAME: NO

COMPOUND: Cc1cc(C)c(C(=O)O)c(CC(C)(C)C(=O)O)c1
TESTED_ON: F380Y/beta1
CLASS_NAME: YES

COMPOUND: O=C1C(c2c(O)[nH]c3ccccc23)=Nc2ccccc21
TESTED_ON: F380Y/beta1
CLASS_NAME: YES

COMPOUND: O=S(=O)(NCc1ccc2c(c1)CCO2)c1cccs1
TESTED_ON: F380Y/beta1
CLASS_NAME: YES

COMPOUND: CCOC(=O)c1c(N)n(-c2ccc(Cl)cc2)c2nc3ccccc3nc12
TESTED_ON: F380Y/beta1
CLASS_NAME: YES

COMPOUND: CCOC(=O)[C@@H](CCc1ccccc1)N[C@@H](C)C(=O)N1CCC[C@H]1C(=O)O
TESTED_ON: F380Y/beta1
CLASS_NAME: NO

COMPOUND: Cc1nc(-c2ccc(S(=O)(=O)N3CCCN(c4ccc(C(F)(F)F)cn4)CC3)s2)cs1
TESTED_ON: F380Y/beta1
CLASS_NAME: YES

COMPOUND: CS(=O)(=O)Nc1ccc(N2CCN(c3ccc(C(F)(F)F)cn3)CC2)nc1
TESTED_ON: F380Y/beta1
CLASS_NAME: YES

COMPOUND: CN(C1CCCCC1)S(=O)(=O)c1cccs1
TESTED_ON: F380Y/beta1
CLASS_NAME: YES

COMPOUND: O=C(NNC(=O)c1ccc2nonc2c1)c1cccc(C(F)(F)F)c1
TESTED_ON: F380Y/beta1
CLASS_NAME: NO

COMPOUND: O=c1n(-c2ccccc2)c(=O)n2n1C1CCC2C1
TESTED_ON: F380Y/beta1
CLASS_NAME: YES

COMPOUND: Cc1cc(CNCC(O)C(F)(F)F)no1 (stereo unspecified)
TESTED_ON: F380Y/beta1
CLASS_NAME: NO

COMPOUND: CC(=O)C1(O)CCC2C3CC(C)C4=CC(=O)C=CC4(C)C3(F)C(O)CC21C (stereo unspecified)
TESTED_ON: F380Y/beta1
CLASS_NAME: NO

COMPOUND: CCOC(=O)c1ccc(-n2sccc2=O)cc1
TESTED_ON: F380Y/beta1
CLASS_NAME: NO

COMPOUND: C[C@H]1O[C@@H](O[C@H]2[C@@H](O)C[C@H](O[C@H]3[C@@H](O)C[C@H](O[C@H]4CC[C@@]5(C)[C@H](CC[C@@H]6[C@@H]5C[C@@H](O)[C@]5(C)C(C7=CC(=O)OC7)CC[C@]65O)C4)O[C@@H]3C)O[C@@H]2C)C[C@H](O)[C@@H]1O (stereo partly specified)
TESTED_ON: F380Y/beta1
CLASS_NAME: NO

COMPOUND: CC1c2cccc(O)c2C(O)=C2C(=O)C3(O)C(O)=C(C(N)=O)C(=O)C(N(C)C)C3C(O)C21 (stereo unspecified)
TESTED_ON: F380Y/beta1
CLASS_NAME: YES

COMPOUND: COC(=O)CC1(C(=O)OC)Oc2ccc(Br)cc2C(=O)N1c1cccc(Cl)c1Cl (stereo unspecified)
TESTED_ON: F380Y/beta1
CLASS_NAME: NO

COMPOUND: Cc1ccc(S(=O)(=O)Oc2c(Cc3ccccc3)c(=O)n(C)c3ccccc23)cc1
TESTED_ON: F380Y/beta1
CLASS_NAME: YES

COMPOUND: O=C(OC1C[C@@H]2CC3C[C@H](C1)N2CC3=O)c1c[nH]c2ccccc12 (stereo partly specified)
TESTED_ON: F380Y/beta1
CLASS_NAME: NO

COMPOUND: CCN(CC)CCOc1ccc(C(=C(Cl)c2ccccc2)c2ccccc2)cc1
TESTED_ON: F380Y/beta1
CLASS_NAME: YES
